Listing: Percent Effect of selected compounds
- target or test system: Aspartate--tRNA(Asp/Asn) ligase (Mycobacterium tuberculosis (strain ATCC 25618 / H37Rv)) (UniProt P9WFW3)
- procedure details: Assay for Asp RNA synthetase-1 from Mycobacterium tuberculosis
- Format: functional
- Parameters: scale not given: in the data most compounds retested in dose-response had high values
- measurement conditions: 30 µM
Give your result in % as a bare value.

Answered cases to consult:
Cn1ccnc1CN1CCN(CC(O)c2ccco2)CC1 (stereo unspecified) = 4.07
O=C(c1ccco1)N1C[C@H]2CCCN(Cc3cccs3)[C@H]2C1 = 6.24
Cc1ccc(OCC(=O)NCc2ccccc2F)nc1 = -0.524
CCc1cc(NCc2ccccc2CN2CCCC2)n2ncnc2n1 = 7.58
O=C([C@H]1CCCO1)N1CCCC2(CCN(Cc3ccncc3)C2=O)C1 (stereo partly specified) = 3.8

Shifting focus to the compound that follows.
Documented Percent Effect of Cc1ncnc2c1CCN(Cc1ccc3c(c1)OCO3)CC2 : -0.729

###

Items are presented alongside their recorded Percent Effect.
- target or test system: Aspartate--tRNA(Asp/Asn) ligase (Mycobacterium tuberculosis (strain ATCC 25618 / H37Rv)) (UniProt P9WFW3)
- Sequence (whole entry): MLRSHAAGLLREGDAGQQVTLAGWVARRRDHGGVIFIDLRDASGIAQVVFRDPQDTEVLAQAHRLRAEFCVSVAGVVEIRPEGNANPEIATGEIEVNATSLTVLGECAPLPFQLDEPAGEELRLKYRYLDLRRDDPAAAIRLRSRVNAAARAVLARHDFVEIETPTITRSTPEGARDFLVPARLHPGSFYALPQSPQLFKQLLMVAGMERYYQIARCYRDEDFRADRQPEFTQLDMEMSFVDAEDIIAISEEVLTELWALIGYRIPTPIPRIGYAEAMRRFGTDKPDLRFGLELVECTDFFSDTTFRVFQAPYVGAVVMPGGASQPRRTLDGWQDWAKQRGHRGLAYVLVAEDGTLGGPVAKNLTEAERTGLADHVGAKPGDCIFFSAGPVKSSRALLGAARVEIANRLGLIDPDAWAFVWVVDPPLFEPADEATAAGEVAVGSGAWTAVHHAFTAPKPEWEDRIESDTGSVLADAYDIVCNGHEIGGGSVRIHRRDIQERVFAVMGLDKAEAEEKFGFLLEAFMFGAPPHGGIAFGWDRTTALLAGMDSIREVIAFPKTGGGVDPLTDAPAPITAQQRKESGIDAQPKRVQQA
- procedure details: Assay for Asp RNA synthetase-1 from Mycobacterium tuberculosis
- Format: functional
- Set-up: scale not given: in the data most compounds retested in dose-response had high values
- measurement conditions: 30 µM
Give just the numeric value; % need not be written.

Sample records with Percent Effect:
O=C(Nc1cccnc1)[C@H]1CN(Cc2nccs2)C[C@H]2OCC[C@@H]12 = -1.01
CC(C)NC(=O)[C@@H]1C[C@H](N)CN1C(=O)c1cc2c([nH]c1=O)CCCC2 = 2.4
Cc1nc(C)n(CC2CCCN2CCc2cccs2)n1 (stereo unspecified) = -0.678
O=C(NCCS(=O)(=O)N1CCc2ccccc21)c1c(O)cc(F)cc1F = -2.88
Cc1ccc(-c2nc(CN3CCOC(c4ccccc4)C3)cs2)o1 (stereo unspecified) = -0.792
COC(=O)C1CCN(C(=O)CN2CCN(c3cccc(C)c3)CC2)CC1 = -0.137
Cc1n[nH]c(C)c1NC(=O)CN1CCCC(CNC(=O)C(C)(C)C)C1 (stereo unspecified) = -4.35
CC(=O)NCC(=O)N1CCn2cc(CN3CCN(C)CC3)nc2C1 = 1.6

Percent Effect recorded for this compound, COc1ccc(OC)c(C(C)Nc2nc3c(C)nn(C)c3c(=O)n2C)c1 (stereo unspecified) , is 4.76

Input CN(C)CCN1CCCC12CCN(C(=O)c1cnccn1)CC2 . Output Percent Effect: 1.96

The compound listed as Cn1cnnc1CNC(=O)Nc1cc(C(F)(F)F)c[nH]c1=O has a reported Percent Effect of 1.79
